Experiment: viability rescue of complex I mutant cybrids, primary screen, cell-based, galactose medium, ATP luminescence (AID 1645843);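 also: positive z means more ATP and so rescue of galactose-driven cybrid death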
Conditions: complex I mutant cybrid cells, 72 h, hits give high values
Label scheme for z-score: zone 1 = under -0.3, zone 2 = from -0.3 up to 0.7, zone 3 = 0.7 and over

molecule	qualitative-label
COc1nccnc1NS(=O)(=O)c1ccc(N)cc1	zone 1

Tag the class for COc1ccc(CCN(C)CCCN2CCc3cc(OC)c(OC)cc3CC2=O)cc1OC
zone 1

Also C=C1C(=O)O[C@H]2[C@H]1CC/C(C)=C/CC[C@@]1(C)O[C@@H]21 ?
zone 3

For Cc1ccc2c(c1)c1c3n2CCNC3CCC1 (configuration not stated) then?
zone 1

Lookup CCc1cc(Cl)c(OC)c(C(=O)NC[C@@H]2CCCN2CC)c1O
zone 1

And Cc1ccccc1C(=O)Nc1ccc(C(=O)N2CCCC(O)c3cc(Cl)ccc32)c(C)c1 (configuration not stated) ?
zone 3

CCn1nc(C(=O)O)c(=O)c2cc3c(cc21)OCO3 , same question.
zone 2
